Data origin: the supplement of paper PMC8728848

biological target: Gal(b1-3)[Fuc(a1-4)]GlcNAc(b1-2)Man(a1-3)[Gal(b1-3)[Fuc(a1-4)]GlcNAc(b1-2)Man(a1-6)]Man(b1-4)GlcNAc(b1-4)GlcNAc; experiment: glycan array binding signal (z-score within array); higher = stronger binding; conditions: glycan notation: IUPAC condensed, linker removed
The entries come from a sample that favours the strongest signals as a whole.

{"columns": ["binder", "glycan array binding signal (z-score)"],
 "data": [
  ["StdA (Salmonella typhimurium), Q8Z3Z0 (protein) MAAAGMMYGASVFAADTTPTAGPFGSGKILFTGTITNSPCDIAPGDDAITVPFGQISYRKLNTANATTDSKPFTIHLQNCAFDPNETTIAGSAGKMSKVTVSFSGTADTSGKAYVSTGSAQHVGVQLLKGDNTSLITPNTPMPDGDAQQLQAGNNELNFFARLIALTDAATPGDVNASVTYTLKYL", 5.67],
  ["GST Gap3 (Streptococcus parasanguinis) (protein) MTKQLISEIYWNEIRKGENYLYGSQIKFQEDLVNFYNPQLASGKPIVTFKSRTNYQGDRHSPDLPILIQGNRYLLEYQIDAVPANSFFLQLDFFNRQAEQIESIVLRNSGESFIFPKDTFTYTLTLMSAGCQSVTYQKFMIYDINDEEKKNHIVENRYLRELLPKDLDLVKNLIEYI", 3.61]
]}
